Target: Flt-1 VEGF-receptor tyrosine kinase (Homo sapiens, UniProt P17948)
Sequence (P17948 827-1158 limits assumed): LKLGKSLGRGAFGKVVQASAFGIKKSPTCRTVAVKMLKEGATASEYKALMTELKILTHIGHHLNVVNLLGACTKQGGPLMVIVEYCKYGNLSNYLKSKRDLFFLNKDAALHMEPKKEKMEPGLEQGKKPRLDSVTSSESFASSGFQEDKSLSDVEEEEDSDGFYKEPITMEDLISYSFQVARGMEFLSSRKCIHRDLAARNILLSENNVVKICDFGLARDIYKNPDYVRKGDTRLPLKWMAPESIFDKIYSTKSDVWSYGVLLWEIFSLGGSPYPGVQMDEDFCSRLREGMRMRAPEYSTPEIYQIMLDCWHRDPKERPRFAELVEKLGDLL
Experiment: Test for activity against Flt-1 VEGF-receptor tyrosine kinase
Structures can show the parent of a compound that is named as a salt.
ASSAY METRIC: IC50 (nM)

COMPOUND	IC50 (nM)
Clc1cccc(Nc2nnc(Cc3ccncc3)c3ccccc23)c1 [Example 5, hydrochloride]	210
Cc1ccc(Oc2nnc(Cc3ccncc3)c3ccccc23)cc1 [Example 72C]	747
Cc1ccc(Nc2nnc(Cc3ccncc3)c(C)c2C)cc1 [Example 82B]	774
COc1cccc(Nc2nnc(Cc3ccncc3)c3ccc(N)cc23)c1 [Example 32F]	793

P = COc1ccc(Nc2nnc(Cc3ccncc3)c3ccccc23)cc1
Q = Nc1ccc2c(Cc3ccncc3)nnc(Nc3ccc(Cl)cc3)c2c1 [Example 32A, hydrochloride]
Query :: Given P and given Q , which shows the smaller recorded IC50? Could you answer with the label of the item you picked?
Result :: Q
(Q: 42 nM, P: 330 nM)

###

ASSAY METRIC: melting point

Known results for compounds:
COMPOUND	melting point
c1ccc(CNc2nnc(Cc3ccncc3)c3ccccc23)cc1	137 to 138 °C
Fc1cc(Cl)ccc1Nc1nnc(Cc2ccncc2)c2ccccc12 [Example 44D]	157 to 159 °C
COc1ccc(Oc2nnc(Cc3ccncc3)c3ccccc23)cc1 [Example 72D]	194 to 196 °C

Lab note: CC(=O)Nc1ccc2c(Cc3ccncc3)nnc(Nc3ccc(Cl)cc3)c2c1.Cl gave melting point of 260 to 265 °C

For record COc1ccccc1Nc1nnc(Cc2ccncc2)c2ccccc12 the listed melting point is 190 to 191 °C

###

Molecular target: PDGF-receptor kinase
Assay: Inhibition of PDGF-receptor kinase (method of Trinks et al.)
Where a name gives a salt, the structure may show the parent alone.
ASSAY METRIC: IC50

Lab note: measured IC50 of Clc1ccc(Nc2nnc(Cc3ccncc3)c3ccccc23)cc1 [Example 1, dihydrochloride] was ~1000 nM

###

Target: UniProt P17948
Experiment: Test for activity against Flt-1 VEGF-receptor tyrosine kinase
ASSAY METRIC: IC50 (µM)

A = Fc1ccc(Nc2nnc(Cc3ccncc3)c3ccccc23)cc1 [Example 17]
B = c1ccc2c(NC3CCCC3)nnc(Cc3ccncc3)c2c1 [Example 58]
C = FC(F)(F)c1ccc(Nc2nnc(Cc3ccncc3)c3ccccc23)cc1 [Example 16]
D = c1ccc(COc2cccc(Nc3nnc(Cc4ccncc4)c4ccccc34)c2)cc1 [Example 9]
E = Cc1ccc(Nc2nnc(Cc3ccncc3)c3ccccc23)cc1F [Example 44C]
Query :: Lab note: arrange the 5 compounds above from lowest to highest IC50. Form field (ranking): labels in requested order.
Result :: E, A, C, D, B

###

Biological target: UniProt P17948
Experiment: Test for activity against Flt-1 VEGF-receptor tyrosine kinase
ASSAY METRIC: IC50 (nM)

Completed entries (count: 3):
COMPOUND	IC50 [nM]
Nc1ccc2c(Cc3ccncc3)nnc(Nc3cccc(Cl)c3)c2c1 [Example 32B]	1000
Clc1ccc(Nc2nnc(Cc3ccncc3)c3ccncc23)cc1	3200
Clc1ccc(Nc2nnc(Cc3ccncc3)c3c2CCCC3)cc1 [Example 44H]	11400

P = Clc1ccc(Sc2nnc(Cc3ccncc3)c3ccccc23)cc1 [Example 72E]
Q = Oc1ccc(Nc2nnc(Cc3ccncc3)c3ccccc23)cc1
R = Fc1ccc(Nc2nnc(Cc3ccncc3)c3ccccc23)cc1Cl
Query :: Number of compounds to sort: 3. Sort criterion: IC50, ascending. Rank the items, then write their labels in that order.
Result :: R, Q, P

A = Clc1cccc(Oc2nnc(Cc3ccncc3)c3ccccc23)c1 [Example 72A]
B = Cc1c(Cc2ccncc2)nnc(Nc2ccc(Cl)cc2)c1C [Example 82A]
Query :: Which one would you say has the larger IC50 value: A , or B ? Kindly give the label for the entry you pick.
Result :: A
(A: 1270 nM, B: 478 nM)
